target: human recombinant histamine H2 receptor (Homo sapiens, UniProt P25021); construct: expressed in transfected cells; host or cells: CHO-K1 cells; experiment: Histamine H2 radioligand binding ([125I]Aminopotentidine); conditions: 1 μM; inhibition of specific [125I]Aminopotentidine binding; read-out: Binding data (Percentage Inhibition) Histamine Binding (1 μM) H2
Sequence (P25021 whole entry): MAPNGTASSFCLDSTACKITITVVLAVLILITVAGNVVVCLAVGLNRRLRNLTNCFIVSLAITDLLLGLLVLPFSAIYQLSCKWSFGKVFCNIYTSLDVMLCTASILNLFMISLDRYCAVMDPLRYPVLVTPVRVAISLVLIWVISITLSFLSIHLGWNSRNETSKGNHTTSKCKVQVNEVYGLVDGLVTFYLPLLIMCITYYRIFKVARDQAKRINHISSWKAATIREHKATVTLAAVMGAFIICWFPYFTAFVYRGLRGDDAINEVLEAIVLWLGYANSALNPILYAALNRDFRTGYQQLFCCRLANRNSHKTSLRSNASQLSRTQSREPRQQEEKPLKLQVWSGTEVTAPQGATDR
The threshold is inclusive: inhibition at 1 µM of exactly 50% counts as fulfilled; values below receive not fulfilled.

| compound | label.value |
| --- | --- |
| Cc1ccc2c(c1)c1c(n2CCC(=O)N2CCCCC2)CN(C)CC1 | not fulfilled |
| CCC1c2c(c3cc(Cl)ccc3n2C(=O)Cc2ccc(F)cc2)CCN1C (stereo not shown) | not fulfilled |

Q: Given the entry C/C(=C\n1c2c(c3cc(Cl)ccc31)CCN(C)C2)c1ccc(F)c(F)c1 , answer whether its inhibition at 1 µM meets or surpasses 50%.
Result: fulfilled

Q: Given the entry CN1CCc2c(n(CC(=O)N3CCCCC3)c3ccc(Cl)cc23)C1 , answer whether its inhibition at 1 µM meets or surpasses 50%.
Result: not fulfilled

Q: Given the entry CN1CCc2c(n(CC(=O)N3CCCC3)c3ccc(Cl)cc23)C1 , answer whether its inhibition at 1 µM meets or surpasses 50%.
Result: not fulfilled

Q: Given the entry C/C(=C\n1c2c(c3cc(Cl)ccc31)CCN(C)C2)c1ccc(Cl)cc1 , answer whether its inhibition at 1 µM meets or surpasses 50%.
Result: fulfilled

Q: Given the entry Cc1ccc2c(c1)c1c(n2CC(=O)N2CCCCC2)CN(C)CC1 , answer whether its inhibition at 1 µM meets or surpasses 50%.
Result: not fulfilled

Q: Given the entry CN1CCc2c(n(CC(O)c3ccccc3F)c3ccc(Cl)cc23)C1 (stereo not shown) , answer whether its inhibition at 1 µM meets or surpasses 50%.
Result: not fulfilled

Q: Given the entry Cc1ccc2c(c1)c1c(n2CC(=O)O)CN(C)CC1 , answer whether its inhibition at 1 µM meets or surpasses 50%.
Result: not fulfilled

Q: Given the entry CCC1c2c(c3cc(C)ccc3n2/C=C(\C)c2ccc(F)c(F)c2)CCN1C (stereo not shown) , answer whether its inhibition at 1 µM meets or surpasses 50%.
Result: not fulfilled

Origin of measurements: patent US9260429B2
